- system.under.test: T1, Human CD19-his protein (human, UniProt P15391 20-291)
- T1 construct: bought protein; also called recombinant human CD19-His; CD19 full-length protein; not shown: His tag
- T1 sequence (looked up): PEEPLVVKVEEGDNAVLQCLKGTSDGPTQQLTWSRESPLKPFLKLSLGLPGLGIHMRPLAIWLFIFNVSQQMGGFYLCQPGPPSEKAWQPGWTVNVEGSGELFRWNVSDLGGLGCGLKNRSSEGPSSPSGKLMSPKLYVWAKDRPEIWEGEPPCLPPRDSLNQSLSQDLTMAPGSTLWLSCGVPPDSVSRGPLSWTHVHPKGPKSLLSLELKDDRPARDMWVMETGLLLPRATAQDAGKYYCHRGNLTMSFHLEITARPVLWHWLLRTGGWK
- procedure.text: SPR Biacore, Ab captured on Protein A, CD19-His analyte
measured.attribute: Kd (pM)
Reply with just the number (in pM).

For the binder F4.78.1 (antibody, human IgG1, V domains shown, human-murine chimeric antibody, human IgG1 constant) VH: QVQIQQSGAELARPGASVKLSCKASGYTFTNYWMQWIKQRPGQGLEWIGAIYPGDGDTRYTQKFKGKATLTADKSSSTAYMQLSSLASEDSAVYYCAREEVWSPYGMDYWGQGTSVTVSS VL: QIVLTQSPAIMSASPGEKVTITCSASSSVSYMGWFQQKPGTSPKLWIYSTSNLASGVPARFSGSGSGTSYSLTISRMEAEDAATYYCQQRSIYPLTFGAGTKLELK , what Kd is on record?
926

Origin of values: patent US20250042994A1
